meta.source: PubChem BioAssay (EPA / NIEHS)

# MEASURED TARGET: human Peroxisome Proliferator-activated Receptor delta (PPARd), PPARD (gene 5467)
# PROTOCOL NOTES: ATG_PPARd_TRANS: Attagene TRANS-FACTORIAL HepG2 Assay for human Peroxisome Proliferator-activated Receptor delta (PPARd) (AID 2283002)
Records with an inconclusive call do not appear. Activity calls are given as the source filed them. How the source made its calls: active means hit-call score of the fitted dose curve at least 0.9, where 1 is the maximum; inconclusive means response in the unintended direction; inactive means score below 0.9.
MEASURE NAME: outcome

Consider the worked cases shown below.
QUERY SMILES: C1CCC(C2CCCCC2)CC1
MEASURE NAME: outcome
EXPERIMENTAL VALUE: inactive

QUERY SMILES: Oc1cccc(-c2ccccc2)c1
MEASURE NAME: outcome
EXPERIMENTAL VALUE: inactive

QUERY SMILES: O=C(O)c1cc(I)cc(I)c1I
MEASURE NAME: outcome
EXPERIMENTAL VALUE: inactive

QUERY SMILES: Nc1ncn[nH]1
MEASURE NAME: outcome
EXPERIMENTAL VALUE: inactive

QUERY SMILES: OC(c1ccc(Cl)cc1)(c1ccc(Cl)cc1)c1cccnc1
MEASURE NAME: outcome
EXPERIMENTAL VALUE: inactive

Q. Kindly indicate its recorded outcome. Item: `N#CCC#N`
A. inactive

Q. Kindly indicate its recorded outcome. Item: `O=C(CCl)NCO`
A. inactive

Q. Kindly indicate its recorded outcome. Item: `CCOP(=O)(OCC)OC(=CCl)c1ccc(Cl)cc1Cl`
A. inactive

Q. Kindly indicate its recorded outcome. Item: `C=CC(=O)[O][Sn]([CH2]CCC)([CH2]CCC)[CH2]CCC`
A. inactive

---

# PROTOCOL NOTES: ATG_DR4_LXR_CIS: Attagene CIS-FACTORIAL HepG2 Assay for human Liver X Receptor (LXR), DR4 submotif (AID 2282929)
# TEST PARAMETERS: HepG2 Attagene DR4 cis-reporter, mRNA transcription; actives raise or lower the signal
Activity calls are given as the source filed them. How the source made its calls: active means hit-call score of the fitted dose curve at least 0.9, where 1 is the maximum; inactive means score below 0.9.
Answer with one of the outcomes given here: 1 (active), 0 (inactive)

Q. Recorded test outcome, item `O=NN1CCCCCC1`
A. 0

Q. Recorded test outcome, item `Cc1cc(C(C)(C)c2ccc(O)c(C)c2)ccc1O`
A. 1

Q. Recorded test outcome, item `CCN(CC)C(=O)C(Cl)=C(C)OP(=O)(OC)OC`
A. 0

Q. Recorded test outcome, item `Nc1nc(=S)[nH][nH]1`
A. 0

Q. Recorded test outcome, item `CNC(=O)CSP(=O)(OC)OC`
A. 0

Q. Recorded test outcome, item `O=C(O)CC(O)(CC(=O)O)C(=O)O`
A. 0

Q. Recorded test outcome, item `N#Cc1cccnc1`
A. 0

Q. Recorded test outcome, item `CCCCN(CCCC)C(=S)[S-].CCCCN(CCCC)C(=S)[S-].[Ni+2]`
A. 0

Q. Recorded test outcome, item `Clc1cccc(Cl)c1`
A. 0

Q. Recorded test outcome, item `CN(C)C(=S)S`
A. 1

Q. Recorded test outcome, item `CN(C)CCN(C)C`
A. 0

Q. Recorded test outcome, item `CNC(=O)O/N=C/C(C)(C)S(C)(=O)=O`
A. 0

Q. Recorded test outcome, item `O=C(N[C@H]1CN2CCC1CC2)c1ccc2c(c1)OCCO2`
A. 0

Q. Recorded test outcome, item `c1csc(-c2ccc(-c3cccs3)s2)c1`
A. 1

Q. Recorded test outcome, item `c1ccc(-c2cccc(-c3ccccc3)c2)cc1`
A. 1

Q. Recorded test outcome, item CC(C=O)Cc1ccc2c(c1)OCO2 (stereo unspecified)
A. 0

Q. Recorded test outcome, item `Brc1ccc(Br)cc1`
A. 0

Q. Recorded test outcome, item `CC(F)(F)CC(F)(F)F`
A. 0

Q. Recorded test outcome, item `CC(C)CP(=S)(S)CC(C)C`
A. 0

Q. Recorded test outcome, item `CCCCCCCCCCCCCl`
A. 0

Q. Recorded test outcome, item `CCC[CH2][Sn]([Cl])([Cl])[CH2]CCC`
A. 1

Q. Recorded test outcome, item OC(Cc1ccccc1Cl)(Cn1cncn1)C1(Cl)CC1 (stereo unspecified)
A. 0

Q. Recorded test outcome, item `CCOP(=S)(OCC)SCSc1cc(Cl)ccc1Cl`
A. 0

Q. Recorded test outcome, item `CC(=Cc1ccccc1)[N+](=O)[O-]`
A. 1

Q. Recorded test outcome, item `O=[N+]([O-])c1ccccc1O`
A. 0

Q. Recorded test outcome, item `Cc1cc(Cl)ccc1N`
A. 0

Q. Recorded test outcome, item CCC(C)(C#N)N=NC(C)(C#N)CC (stereo unspecified)
A. 0

Q. Recorded test outcome, item `O=[N+]([O-])c1ccc(Nc2ccccc2)cc1`
A. 0

Q. Recorded test outcome, item `CC(C)CC(C)(c1ccc(O)cc1)c1ccc(O)cc1`
A. 1

Q. Recorded test outcome, item `CCCCCCCCCCBr`
A. 0

Q. Recorded test outcome, item `Nc1c(Oc2ccccc2)cc(O)c2c1C(=O)c1ccccc1C2=O`
A. 0
